molecular target: WT-TTR (Homo sapiens (Human)); experiment: Isothermal titration calorimetry (ITC) with WT-TTR; conditions: 25° C., pH 7.2, 2% DMSO, model with two ligand-binding sites, read-out: Kd1
pKd: −log10 of the molar value.
experimental-readout: pKd

compound_structure_string=Cc1c(C(=O)O)coc1/C=C/c1ccc(Cl)o1 numeric_value=8.46

====

target: WT-TTR (Homo sapiens (Human), UniProt P02766); assay: Isothermal titration calorimetry (ITC) with WT-TTR; conditions: 25° C., pH 7.2, 2% DMSO, model with two ligand-binding sites, read-out: Kd2
pKd: −log10 of the molar value.
experimental-readout: pKd

compound="Cc1c(C(=O)O)coc1/C=C/c1ccc(Cl)o1 [AT09-B00]" numeric_value=6.45

Where do these numbers come from? They come from patent US10377729B2.
